Would you mind telling me the reported IC50 of each entry?
Target: Aurora kinase A (Homo sapiens, UniProt O14965)
Sequence (O14965 whole entry): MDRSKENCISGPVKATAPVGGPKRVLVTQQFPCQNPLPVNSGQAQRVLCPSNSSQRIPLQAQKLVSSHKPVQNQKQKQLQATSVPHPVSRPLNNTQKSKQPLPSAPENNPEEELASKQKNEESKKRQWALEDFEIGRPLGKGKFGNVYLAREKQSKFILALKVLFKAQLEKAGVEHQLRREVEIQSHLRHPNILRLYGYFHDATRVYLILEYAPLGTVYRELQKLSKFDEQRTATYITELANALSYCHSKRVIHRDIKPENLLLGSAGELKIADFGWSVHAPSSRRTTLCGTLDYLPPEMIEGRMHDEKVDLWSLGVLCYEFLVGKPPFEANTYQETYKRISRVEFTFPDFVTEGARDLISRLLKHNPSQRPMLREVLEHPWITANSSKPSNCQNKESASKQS
Assay: Inhibition of recombinant Aurora A (unknown origin) using TAMRA-PKAtide as substrate after 30 mins by fluorescence polarization assay
Answer format: numeric, nM implied, no suffix.

Incoming: Consider the molecule CNC(=O)Nc1sc2c(C(C)C)cc(NS(=O)(=O)c3cccc(C)c3)cc2c1C(N)=O tested on Aurora kinase A (Homo sapiens, UniProt O14965); state its IC50.
Outgoing: 95

Incoming: Consider the molecule CNC(=O)Nc1sc2c(C(C)C)cc(NS(=O)(=O)N(C)C)cc2c1C(N)=O tested on Aurora kinase A (Homo sapiens, UniProt O14965); state its IC50.
Outgoing: 9

Incoming: Consider the molecule CCCNS(=O)(=O)Nc1cc(C(C)C)c2sc(NC(=O)NC)c(C(N)=O)c2c1 tested on Aurora kinase A (Homo sapiens, UniProt O14965); state its IC50.
Outgoing: 21

Incoming: Consider the molecule CNC(=O)Nc1sc2c(C(C)C)cc(NS(=O)(=O)c3cc(C)cs3)cc2c1C(N)=O tested on Aurora kinase A (Homo sapiens, UniProt O14965); state its IC50.
Outgoing: 80
